biological target: Sulfonylurea receptor 2, Kir6.2 (Homo sapiens, UniProt O60706+Q14654); experiment: In vitro ATP-sensitive potassium channel (KATP) activity in cells expressing human KATP channels Kir6.2 and sulfonylurea receptor 2B
Sequence (Q14654 whole entry): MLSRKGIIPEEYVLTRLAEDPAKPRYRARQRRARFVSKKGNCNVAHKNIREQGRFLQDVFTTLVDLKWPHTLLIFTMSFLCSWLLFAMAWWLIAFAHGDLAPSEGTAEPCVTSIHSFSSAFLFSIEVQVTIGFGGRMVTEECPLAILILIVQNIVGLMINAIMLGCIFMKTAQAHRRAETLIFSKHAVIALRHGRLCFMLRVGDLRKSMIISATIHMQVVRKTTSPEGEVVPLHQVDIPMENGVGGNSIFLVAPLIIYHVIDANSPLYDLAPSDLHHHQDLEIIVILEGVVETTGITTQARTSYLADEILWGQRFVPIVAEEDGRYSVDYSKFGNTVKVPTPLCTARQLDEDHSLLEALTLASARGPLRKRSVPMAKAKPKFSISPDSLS
Sequence (O60706 whole entry): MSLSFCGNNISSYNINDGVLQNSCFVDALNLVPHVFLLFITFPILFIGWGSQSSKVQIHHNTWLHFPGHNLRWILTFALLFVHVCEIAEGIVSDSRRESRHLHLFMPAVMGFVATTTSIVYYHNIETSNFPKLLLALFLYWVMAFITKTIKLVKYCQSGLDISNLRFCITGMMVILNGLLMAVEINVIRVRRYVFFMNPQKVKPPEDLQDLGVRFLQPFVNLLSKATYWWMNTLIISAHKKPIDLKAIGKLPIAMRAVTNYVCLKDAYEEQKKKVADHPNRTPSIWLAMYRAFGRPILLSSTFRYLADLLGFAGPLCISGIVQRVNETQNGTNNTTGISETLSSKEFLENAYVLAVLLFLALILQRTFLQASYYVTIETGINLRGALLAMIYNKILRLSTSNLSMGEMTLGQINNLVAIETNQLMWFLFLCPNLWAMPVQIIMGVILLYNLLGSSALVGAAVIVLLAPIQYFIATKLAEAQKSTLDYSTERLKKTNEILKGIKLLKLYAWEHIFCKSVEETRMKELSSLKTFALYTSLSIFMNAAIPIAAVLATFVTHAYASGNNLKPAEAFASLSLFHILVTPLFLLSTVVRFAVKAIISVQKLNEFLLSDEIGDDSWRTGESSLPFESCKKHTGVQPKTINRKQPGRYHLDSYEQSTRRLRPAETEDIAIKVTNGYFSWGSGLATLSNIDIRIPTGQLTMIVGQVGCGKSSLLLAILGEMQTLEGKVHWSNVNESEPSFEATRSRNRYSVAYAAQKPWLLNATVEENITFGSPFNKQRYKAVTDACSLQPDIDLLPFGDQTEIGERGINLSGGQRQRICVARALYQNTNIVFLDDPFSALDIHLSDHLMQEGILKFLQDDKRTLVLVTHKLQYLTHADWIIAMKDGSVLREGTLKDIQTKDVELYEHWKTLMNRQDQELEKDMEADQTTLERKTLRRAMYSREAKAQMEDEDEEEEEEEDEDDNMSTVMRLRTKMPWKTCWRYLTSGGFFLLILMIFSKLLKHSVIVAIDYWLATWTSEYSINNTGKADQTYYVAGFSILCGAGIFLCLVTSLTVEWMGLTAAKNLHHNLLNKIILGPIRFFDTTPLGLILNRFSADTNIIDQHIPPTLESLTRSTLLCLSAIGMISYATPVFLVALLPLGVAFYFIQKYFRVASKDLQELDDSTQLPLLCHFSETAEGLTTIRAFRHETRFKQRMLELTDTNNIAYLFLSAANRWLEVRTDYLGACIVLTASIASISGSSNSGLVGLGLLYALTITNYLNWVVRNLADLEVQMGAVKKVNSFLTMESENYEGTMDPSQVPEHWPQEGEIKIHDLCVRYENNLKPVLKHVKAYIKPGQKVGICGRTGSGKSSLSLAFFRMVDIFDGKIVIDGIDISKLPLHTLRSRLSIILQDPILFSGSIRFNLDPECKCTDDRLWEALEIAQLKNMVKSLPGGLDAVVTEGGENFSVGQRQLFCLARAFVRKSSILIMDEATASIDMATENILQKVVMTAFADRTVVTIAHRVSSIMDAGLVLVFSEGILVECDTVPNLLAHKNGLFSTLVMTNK
experimental_readout: log10(EC50) (log10 of the value in µM)
The common logarithm of EC50 in µM is what is listed.

Worked cases, answers included:
- compound: "CC(Cl)(Cl)C(NC(=O)c1cccc(Cl)c1)N/C(=N/c1cccnc1)NC#N (stereo not given)"
  tested_target: "Sulfonylurea receptor 2, Kir6.2 (Homo sapiens, UniProt O60706+Q14654)"
  experimental_readout: "log10(EC50)"
  data_value: 0.50
- compound: "CC(C)(C)C(NC(=O)c1ccc(Cl)cc1)N/C(S)=N/c1cccnc1 (stereo not given)"
  tested_target: "Sulfonylurea receptor 2, Kir6.2 (Homo sapiens, UniProt O60706+Q14654)"
  experimental_readout: "log10(EC50)"
  data_value: 0.40
- compound: "CC(Cl)(Cl)[C@@H](NC(=O)c1ccc(Cl)cc1)N/C(=N/C#N)Nc1cccnc1"
  tested_target: "Sulfonylurea receptor 2, Kir6.2 (Homo sapiens, UniProt O60706+Q14654)"
  experimental_readout: "log10(EC50)"
  data_value: -0.50
- compound: "CC(Cl)(Cl)C(NC(=O)c1cc(F)cc(F)c1)N/C(=N/c1cccnc1)NC#N (stereo not given)"
  tested_target: "Sulfonylurea receptor 2, Kir6.2 (Homo sapiens, UniProt O60706+Q14654)"
  experimental_readout: "log10(EC50)"
  data_value: 0.60
- compound: "CC(C)(C)C(NC(=O)c1ccc(Cl)cc1)N/C(=N/c1cccnc1)NC#N (stereo not given)"
  tested_target: "Sulfonylurea receptor 2, Kir6.2 (Homo sapiens, UniProt O60706+Q14654)"
  experimental_readout: "log10(EC50)"
  data_value: 0.80
- compound: "CC(C)(C)C(NC(=O)c1ccc(Cl)cc1)N/C(=N/c1cccnc1)N[N+](=O)[O-] (stereo not given)"
  tested_target: "Sulfonylurea receptor 2, Kir6.2 (Homo sapiens, UniProt O60706+Q14654)"
  experimental_readout: "log10(EC50)"
  data_value: 1.50

*Q* Please state recorded log10(EC50) (tested on Sulfonylurea receptor 2, Kir6.2 (Homo sapiens, UniProt O60706+Q14654)) of C=CCC(C)(C)C(NC(=O)c1ccc(Cl)cc1)NC(=NC#N)Nc1cccnc1 (stereo not given)
*A* 1.30

*Q* Recall the recorded log10(EC50) for N#CN/C(=N\C(NC(=O)c1ccc(Cl)cc1)C(Cl)(Cl)Cl)Nc1cccnc1 (stereo not given) with Sulfonylurea receptor 2, Kir6.2 (Homo sapiens, UniProt O60706+Q14654) and state it.
*A* 0.00

*Q* What measured log10(EC50) is associated with CC(Cl)(Cl)C(NC(=O)c1ccc(Cl)cc1)NC(=NC#N)Nc1cccnc1 (stereo not given) on Sulfonylurea receptor 2, Kir6.2 (Homo sapiens, UniProt O60706+Q14654)?
*A* 0.30

Cited source: ChEMBL document CHEMBL1148468
